# target.or.test.system: CAAX farnesyltransferase (Rattus norvegicus, UniProt Q02293+Q04631)
# assay.text: In vitro inhibition of CAAX farnesyltransferase
# Format: biochemical
# Parameters: purified to homogeneity from rat brain homogenates; from tissue; host or cells: rat brain; alternatively recombinant enzyme from a baculovirus expression system
# measurement.conditions: diastereomer A; Table D; read-out: EC50 (μM) "A"
Provide the reported EC50 of each item.
A number alone suffices; assume µM.

Look up and report measured EC50 for this entry: CN(C(=O)[C@@H](N)CS)C1N=C(c2ccccc2)c2cc(Cl)ccc2N(CC(=O)N[C@H](C(N)=O)C2CCCCC2)C1=O (stereo partly shown) [compound 72]
0.6

Using known records, supply EC50 for CN(C(=O)[C@@H](N)CS)C1N=C(c2ccccc2)c2ccccc2N(CC(=O)N[C@@H](CCc2ccccc2)C(=O)O)C1=O (stereo partly shown) [compound 59]
1.1

Specify measured EC50 for CSCC[C@H](NC(=O)CN1C(=O)C(NC(=O)[C@@H](N)CS)N=C(c2ccccc2)c2ccccc21)C(=O)O (stereo partly shown) [compound 28] .
0.38

Respond only with EC50 recorded for CSCC[C@H](NC(=O)CN1C(=O)C(N(C)C(=O)[C@@H](N)CS)N=C(c2ccccc2)c2ccccc21)C(N)=O (stereo partly shown) [compound 33]
2.2

Look up and state reported EC50 for CN(C(=O)[C@@H](N)CS)C1N=C(c2ccccc2)c2ccccc2N(Cc2ccc(-c3ccccc3-c3nnn[nH]3)cc2)C1=O (stereo partly shown) [compound 98]
0.84

Please report EC50 for the following compound: CSCC[C@H](NC(=O)CN1C(=O)C(N(C)C(=O)[C@@H](N)CS)N=C(c2ccccc2Cl)c2cc(Cl)ccc21)C(=O)O (stereo partly shown) [compound 81]
0.43

Give the measured EC50 for CSCC[C@H](NC(=O)CN1C(=O)C(N(C)C(=O)[C@@H](N)CS)N=C(c2ccccc2)c2ccccc21)C(=O)OC1CCCCC1 (stereo partly shown) [compound 41]
4.2

Give EC50 for CN(C(=O)[C@@H](N)CS)C1N=C(c2ccccc2)c2ccccc2N(CC(=O)N[C@@H](CS)C(=O)O)C1=O (stereo partly shown) [compound 44]
3

Give the reported value of EC50 for this record: CN(C(=O)[C@@H](N)CS)C1N=C(c2ccccc2)c2ccccc2N(CC(=O)N[C@@H](Cc2ccc(-c3ccccc3)cc2)C(=O)O)C1=O (stereo partly shown) [compound 61]
1.7

Check the records and state EC50 for CN(C(=O)[C@@H](N)CS)C1N=C(c2ccccc2)c2ccccc2N(CC(=O)N(CC(=O)O)Cc2ccccc2)C1=O (stereo partly shown) [compound 66]
2.4

Give me measured EC50, please, for this compound: CC(C)C[C@H](NC(=O)CN1C(=O)C(N(C)C(=O)[C@@H](N)CS)N=C(c2ccccc2)c2ccccc21)c1nnn[nH]1 (stereo partly shown) [compound 46]
0.26

---

# target.or.test.system: CAAX farnesyltransferase (Rattus norvegicus, UniProt Q02293+Q04631)
# assay.text: In vitro inhibition of CAAX farnesyltransferase
# Format: biochemical
# Set-up: purified to homogeneity from rat brain homogenates; from tissue; host or cells: rat brain; alternatively recombinant enzyme from a baculovirus expression system
# measurement.conditions: diastereomer B; Table D; read-out: EC50 (μM) "B"
For each record, write down the corresponding EC50.
Number only, in µM; omit the unit.

Supply EC50 measured with CAAX farnesyltransferase (Rattus norvegicus, UniProt Q02293+Q04631) for CN(CC(=O)O)C(=O)CN1C(=O)C(N(C)C(=O)[C@@H](N)CS)N=C(c2ccccc2)c2ccccc21 (some centres unmarked) [compound 65] .
0.0038

State, for CAAX farnesyltransferase (Rattus norvegicus, UniProt Q02293+Q04631), measured EC50 of the molecule listed here: CN(C(=O)[C@@H](N)CS)C1N=C(c2ccccc2)c2ccccc2N(CC(=O)N[C@@H](Cc2ccc(-c3ccccc3)cc2)C(=O)O)C1=O (some centres unmarked) [compound 61]
0.0035

With CAAX farnesyltransferase (Rattus norvegicus, UniProt Q02293+Q04631) as the test system, provide measured EC50 for this molecule: CN(C(=O)C(N)CS)C1N=C(c2ccccc2)c2ccccc2N(Cc2cccc(-c3nnn[nH]3)c2)C1=O (centres unmarked) [compound 96]
0.0013

Tell me EC50 of CN(C(=O)[C@@H](N)CS)C1N=C(c2ccccc2)c2ccccc2N(CC(=O)N[C@@H](Cc2ccc(O)cc2)C(=O)O)C1=O (some centres unmarked) [compound 54] when tested on CAAX farnesyltransferase (Rattus norvegicus, UniProt Q02293+Q04631).
0.004

Look up and report measured EC50 (CAAX farnesyltransferase (Rattus norvegicus, UniProt Q02293+Q04631)) for the following molecule: CN(C(=O)[C@@H](N)CSSC(C)(C)C)C1N=C(c2ccccc2)c2cc(Cl)ccc2N(CC(=O)N[C@@H](Cc2ccccc2)C(N)=O)C1=O (some centres unmarked) [compound 115]
0.1

Param request: EC50 | system CAAX farnesyltransferase (Rattus norvegicus, UniProt Q02293+Q04631) | item CSCC[C@H](NC(=O)CN1C(=O)C(N(C)C(=O)[C@@H](N)CSSC(C)(C)C)N=C(c2ccccc2)c2cc(Cl)ccc21)C(=O)OC1CCCCC1 (some centres unmarked) [compound 111]
1.4

Determine reported EC50 for CSCC[C@H](NC(=O)CN1C(=O)C(NC(=O)[C@@H](N)CS)CCc2ccccc21)C(=O)O (some centres unmarked) [compound 10] ; test system: CAAX farnesyltransferase (Rattus norvegicus, UniProt Q02293+Q04631).
1.4

Tell me EC50 of CSCC[C@H](NC(=O)CCN1C(=O)C(N(C)C(=O)[C@@H](N)CS)N=C(c2ccccc2)c2ccccc21)C(=O)O (some centres unmarked) [compound 48] when tested on CAAX farnesyltransferase (Rattus norvegicus, UniProt Q02293+Q04631).
0.004

Determine reported EC50 for CN(C(=O)[C@@H](N)CS)C1N=C(c2ccccc2)c2ccccc2N(CC(=O)N[C@@H](CO)C(=O)O)C1=O (some centres unmarked) [compound 30] ; test system: CAAX farnesyltransferase (Rattus norvegicus, UniProt Q02293+Q04631).
0.0084

Enter measured EC50, system CAAX farnesyltransferase (Rattus norvegicus, UniProt Q02293+Q04631), for the molecule shown: CN(C(=O)[C@@H](N)CS)C1N=C(c2ccccc2)c2ccccc2N(Cc2ccc(-c3ccccc3-c3nnn[nH]3)cc2)C1=O (some centres unmarked) [compound 98]
0.006

Consider the molecule CC(C)C[C@H](NC(=O)CN1C(=O)C(N(C)C(=O)[C@@H](N)CS)N=C(c2ccccc2)c2ccccc21)c1nnn[nH]1 (some centres unmarked) [compound 46] tested on CAAX farnesyltransferase (Rattus norvegicus, UniProt Q02293+Q04631); state its EC50.
0.0016

Under CAAX farnesyltransferase (Rattus norvegicus, UniProt Q02293+Q04631): report EC50 of CSCC[C@H](NC(=O)CN1C(=O)C(N(C)C(=O)[C@@H](N)CS)N=C(c2ccccc2)c2ccccc21)C(=O)OC1CCCCC1 (some centres unmarked) [compound 41] .
0.074

Answer briefly: EC50 recorded on CAAX farnesyltransferase (Rattus norvegicus, UniProt Q02293+Q04631) for CN(C(=O)[C@@H](N)CS)C1N=C(c2ccccc2)c2cc(Cl)ccc2N(Cc2ccccc2Cl)C1=O (some centres unmarked) [compound 107]
0.006

GET EC50 | system: CAAX farnesyltransferase (Rattus norvegicus, UniProt Q02293+Q04631) | item: CN(C(=O)[C@@H](N)CS)C1N=C(c2ccccc2)c2ccccc2N(CC(=O)N[C@@H](Cc2ccc(F)cc2)C(=O)O)C1=O (some centres unmarked) [compound 60]
0.0005

Name the value of EC50 reported for CSCC[C@H](NC(=O)CN1C(=O)C(N(C)C(=O)[C@@H](N)CSSC(C)(C)C)N=C(c2ccccc2)c2ccccc21)C(=O)OC(C)(C)C (some centres unmarked) [compound 118] when tested on CAAX farnesyltransferase (Rattus norvegicus, UniProt Q02293+Q04631).
0.9

Report measured EC50 on CAAX farnesyltransferase (Rattus norvegicus, UniProt Q02293+Q04631); entry: CN(C(=O)C(N)CS)C1N=C(c2ccccc2)c2ccccc2N(Cc2cccc(C#N)c2)C1=O (centres unmarked) [compound 93]
0.004

Answer briefly: EC50 recorded on CAAX farnesyltransferase (Rattus norvegicus, UniProt Q02293+Q04631) for CSCC[C@H](NC(=O)CN1C(=O)C(N(C)C(=O)[C@H](CS)NC(C)=O)N=C(c2ccccc2)c2ccccc21)C(=O)O (some centres unmarked) [compound 32]
8

// output EC50; input CSCC[C@H](NC(=O)CN1C(=O)C(N(C)C(=O)[C@@H](N)CS)N=C(c2ccccc2Cl)c2cc(Cl)ccc21)C(=O)O (some centres unmarked) [compound 81] ; system CAAX farnesyltransferase (Rattus norvegicus, UniProt Q02293+Q04631)
0.0002

Provide CAAX farnesyltransferase (Rattus norvegicus, UniProt Q02293+Q04631) EC50 reading for CN(C(=O)[C@@H](N)CS)C1N=C(c2ccccc2)c2ccccc2N(CC(=O)N[C@@H](Cc2ccccc2)C(=O)O)C1=O (some centres unmarked) [compound 34] .
0.0005

Tell me EC50 of CN(C(=O)[C@@H](N)CS)C1N=C(c2ccccc2)c2ccccc2N(CC(=O)N[C@@H](CC2CCCCC2)C(=O)O)C1=O (some centres unmarked) [compound 57] when tested on CAAX farnesyltransferase (Rattus norvegicus, UniProt Q02293+Q04631).
0.0015

Please report EC50 with CAAX farnesyltransferase (Rattus norvegicus, UniProt Q02293+Q04631) for item CSCC[C@@H](C(=O)O)N(C)C(=O)CN1C(=O)C(NC(=O)[C@@H](N)CS)N=C(c2ccccc2)c2ccccc21 (some centres unmarked) [compound 63] .
2

# assay system CAAX farnesyltransferase (Rattus norvegicus, UniProt Q02293+Q04631): give EC50 of CSCC[C@H](NC(=O)CN1C(=O)C(N(C)C(=O)[C@@H](N)CSSC(C)(C)C)N=C(c2ccccc2)c2ccccc21)C(=O)OC1CCCCC1 (some centres unmarked) [compound 112]
0.2

Please report the measured EC50 for CSCC[C@H](NC(=O)CN1C(=O)C(N(C)C(=O)[C@@H](N)CSSC(C)(C)C)N=C(c2ccccc2)c2cc(Cl)ccc21)c1nnn[nH]1 (some centres unmarked) [compound 116] tested on CAAX farnesyltransferase (Rattus norvegicus, UniProt Q02293+Q04631).
0.03

State measured EC50 of the molecule CC(C)C[C@H](NC(=O)CN1C(=O)C(N(C)C(=O)[C@@H](N)CS)N=C(c2ccccc2)c2ccccc21)C(=O)O (some centres unmarked) [compound 31] with CAAX farnesyltransferase (Rattus norvegicus, UniProt Q02293+Q04631).
0.0021

Report measured EC50 on CAAX farnesyltransferase (Rattus norvegicus, UniProt Q02293+Q04631); entry: C[C@H](NC(=O)CN1C(=O)C(N(C)C(=O)[C@@H](N)CS)N=C(c2ccccc2)c2ccccc21)C(=O)O (some centres unmarked) [compound 35]
0.022

Taken from patent US5843941A.
